The measured values listed here are drawn from patent US20240252693A1.

- System: FR-positive M109 tumor
- PROTOCOL NOTES: In vivo biodistribution in mice bearing M109 tumors; further: time not given here
- CONDITION: 177Lu chelate, 300 nmol/kg
Measured T/spl, listed per entry.

Worked examples follow.
>>> result("Nc1nc2ncc(CNc3ccc(C(=O)N[C@@H](CCCCNC(=O)COc4ccc(C[C@H](NC(=O)COc5ccc(C[C@H](NC(=O)CN6CCN(CC(=O)O)CCN(CC(=O)O)CCN(CC(=O)O)CC6)C(=O)O)cc5)C(=O)O)cc4)C(=O)O)cc3)nc2c(=O)[nH]1 [Compound 39]")
"83.8 +/− 29.7"
>>> result("Nc1nc2ncc(CNc3ccc(C(=O)N[C@@H](CCCCNC(=O)C[C@H](NC(=O)[C@H](Cc4ccc5ccccc5c4)NC(=O)CNC(=O)CN4CCN(CC(=O)O)CCN(CC(=O)O)CCN(CC(=O)O)CC4)C(=O)O)C(=O)O)cc3)nc2c(=O)[nH]1 [Compound 34]")
"98.3 +/− 25.1"
>>> result("Nc1nc2ncc(CNc3ccc(C(=O)N[C@@H](CCCCNC(=O)COc4ccc(C[C@H](NC(=O)CN5CCN(CC(=O)O)CCN(CC(=O)O)CCN(CC(=O)O)CC5)C(=O)O)cc4)C(=O)O)cc3)nc2c(=O)[nH]1 [Compound 38]")
"69.9 +/− 7.9"
>>> result("Nc1nc2ncc(CNc3ccc(C(=O)N[C@@H](CCCCNC(=O)C[C@H](NC(=O)[C@H](Cc4ccc5ccccc5c4)NC(=O)[C@H](Cc4ccc5ccccc5c4)NC(=O)CN4CCN(CC(=O)O)CCN(CC(=O)O)CCN(CC(=O)O)CC4)C(=O)O)C(=O)O)cc3)nc2c(=O)[nH]1 [Compound 42, Pte-Lys(β-Asp-2-Nal-2-Nal-DOTA)-OH]")
"84.4 +/− 10.4"
>>> result("Nc1nc2ncc(CNc3ccc(C(=O)N[C@@H](CCCCNC(=O)C[C@H](NC(=O)[C@H](Cc4ccc(Br)cc4)NC(=O)CNC(=O)CN4CCN(CC(=O)O)CCN(CC(=O)O)CCN(CC(=O)O)CC4)C(=O)O)C(=O)O)cc3)nc2c(=O)[nH]1 [Compound 43, Pte-Lys(β-Asp-4-Br-Phe-Gly-DOTA)-OH]")
"70.2 +/− 6.7"

Ask: I have this compound here, Nc1nc2ncc(CNc3ccc(C(=O)N[C@@H](CCCCNC(=O)[C@H](Cc4ccc5ccccc5c4)NC(=O)[C@H]4CC[C@H](CNC(=O)CN5CCN(CC(=O)O)CCN(CC(=O)O)CCN(CC(=O)O)CC5)CC4)C(=O)O)cc3)nc2c(=O)[nH]1 [Compound 23] , and I need its recorded T/spl.
Result: 108 +/− 12.7

Ask: How about CSCC[C@H](NC(=S)Nc1ccc(CC2CN(CC(=O)O)CCN(CC(=O)O)CCN(CC(=O)O)CCN2CC(=O)O)cc1)C(=O)N[C@H](C(=O)N[C@@H](CCCCN1C(=O)CC(SC[C@@H](NC(=O)[C@H](CC(=O)O)NC(=O)[C@H](CC(=O)O)NC(=O)[C@H](CCCNC(=N)N)NC(=O)[C@H](CC(=O)O)NC(=O)CC[C@H](NC(=O)c2ccc(NCc3cnc4nc(N)[nH]c(=O)c4n3)cc2)C(=O)O)C(=O)O)C1=O)C(=O)O)C(C)C (some centres unmarked) [Compound 58] ?
Result: 83.1 +/− 17.3

Ask: How about Nc1nc2ncc(CNc3ccc(C(=O)N[C@@H](CCCCNC(=O)COc4ccc(C[C@H](NC(=O)CNC(=O)CN5CCN(CC(=O)O)CCN(CC(=O)O)CCN(CC(=O)O)CC5)C(=O)O)cc4)C(=O)O)cc3)nc2c(=O)[nH]1 [Compound 37] ?
Result: 61.9 +/− 14.4

* * *

- System: FR-positive M109 tumor
- PROTOCOL NOTES: In vivo biodistribution in mice bearing M109 tumors; further: time not given here
- CONDITION: 177Lu chelate, 300 nmol/kg
Measured T/Kid, listed per entry.

Ask: I have this compound here, CSCC[C@H](NC(=S)Nc1ccc(CC2CN(CC(=O)O)CCN(CC(=O)O)CCN(CC(=O)O)CCN2CC(=O)O)cc1)C(=O)N[C@H](C(=O)N[C@@H](CCCCN1C(=O)CC(SC[C@@H](NC(=O)[C@H](CC(=O)O)NC(=O)[C@H](CC(=O)O)NC(=O)[C@H](CCCNC(=N)N)NC(=O)[C@H](CC(=O)O)NC(=O)CC[C@H](NC(=O)c2ccc(NCc3cnc4nc(N)[nH]c(=O)c4n3)cc2)C(=O)O)C(=O)O)C1=O)C(=O)O)C(C)C (stereo partly drawn) [Compound 58] , and I need its recorded T/Kid.
Result: 0.59 +/− 0.12

Ask: How about Nc1nc2ncc(CNc3ccc(C(=O)N[C@@H](CCCCNC(=O)C[C@H](NC(=O)[C@H](Cc4ccc5ccccc5c4)NC(=O)[C@H](Cc4ccc5ccccc5c4)NC(=O)CN4CCN(CC(=O)O)CCN(CC(=O)O)CCN(CC(=O)O)CC4)C(=O)O)C(=O)O)cc3)nc2c(=O)[nH]1 [Compound 42, Pte-Lys(β-Asp-2-Nal-2-Nal-DOTA)-OH] ?
Result: 0.49 +/− 0.16

* * *

- Tested on: FR-positive M109 tumor
- PROTOCOL NOTES: In vivo biodistribution in mice bearing M109 tumors; further: time not given here
- CONDITION: 177Lu chelate, 300 nmol/kg
PROPERTY: T/Liv

Worked examples follow.
>>> result("Nc1nc2ncc(CNc3ccc(C(=O)N[C@@H](CCCCNC(=O)COc4ccc(C[C@H](NC(=O)CNC(=O)CN5CCN(CC(=O)O)CCN(CC(=O)O)CCN(CC(=O)O)CC5)C(=O)O)cc4)C(=O)O)cc3)nc2c(=O)[nH]1")
"13.2 +/− 4.5"
>>> result("Nc1nc2ncc(CNc3ccc(C(=O)N[C@@H](CCCCNC(=O)[C@H](Cc4ccc5ccccc5c4)NC(=O)[C@H]4CC[C@H](CNC(=O)CN5CCN(CC(=O)O)CCN(CC(=O)O)CCN(CC(=O)O)CC5)CC4)C(=O)O)cc3)nc2c(=O)[nH]1")
"25.8 +/− 2.4"
>>> result("Nc1nc2ncc(CNc3ccc(C(=O)N[C@@H](Cc4ccc(OCCNC(=O)CN5CCN(CC(=O)O)CCN(CC(=O)O)CCN(CC(=O)O)CC5)cc4)C(=O)O)cc3)nc2c(=O)[nH]1")
"14.6 +/− 2.0"

Now take the following compound into account.
Ask: I have this compound here, "Nc1nc2ncc(CNc3ccc(C(=O)N[C@@H](CCCCNC(=O)COc4ccc(C[C@H](NC(=O)COc5ccc(C[C@H](NC(=O)CN6CCN(CC(=O)O)CCN(CC(=O)O)CCN(CC(=O)O)CC6)C(=O)O)cc5)C(=O)O)cc4)C(=O)O)cc3)nc2c(=O)[nH]1" , and I need its recorded T/Liv.
Result: 17.1 +/− 6.4

* * *

- Test system: KB tumor
- PROTOCOL NOTES: In vivo biodistribution in mice bearing KB tumors; further: time not given here
- CONDITION: 225Ac chelate, 30 nmol/kg
PROPERTY: T/spl

Ask: I have this molecule here, Nc1nc2ncc(CNc3ccc(C(=O)N[C@@H](CCCCNC(=O)[C@H](Cc4ccc5ccccc5c4)NC(=O)[C@H]4CC[C@H](CNC(=O)CN5CCN(CC(=O)O)CCN(CC(=O)O)CCN(CC(=O)O)CC5)CC4)C(=O)O)cc3)nc2c(=O)[nH]1 [Compound 23] , and I need its recorded T/spl.
Result: 10.1 +/− 4.7

Ask: How about Nc1nc2ncc(CNc3ccc(C(=O)N[C@@H](CNC(=O)CCC(C(=O)O)N4CCN(CC(=O)O)CCN(CC(=O)O)CCN(CC(=O)O)CC4)C(=O)O)cc3)nc2c(=O)[nH]1 (some centres unmarked) [Compound 5] ?
Result: 19.9 +/− 10.9

* * *

Measured T/Liv, listed per entry.
- System: KB tumor
- PROTOCOL NOTES: In vivo biodistribution in mice bearing KB tumors; further: time not given here
- CONDITION: 225Ac chelate, 30 nmol/kg

>>> result("Nc1nc2ncc(CNc3ccc(C(=O)N[C@@H](CCCCNC(=O)[C@H](Cc4ccc5ccccc5c4)NC(=O)[C@H]4CC[C@H](CNC(=O)CCC(C(=O)O)N5CCN(CC(=O)O)CCN(CC(=O)O)CCN(CC(=O)O)CC5)CC4)C(=O)O)cc3)nc2c(=O)[nH]1 (some centres unmarked)")
"3.3 +/− 1.1"
>>> result("Nc1nc2ncc(CNc3ccc(C(=O)N[C@@H](CCCCNC(=O)[C@H](Cc4ccc5ccccc5c4)NC(=O)[C@H]4CC[C@H](CNC(=O)CN5CCN(CC(=O)O)CCN(CC(=O)O)CCN(CC(=O)O)CC5)CC4)C(=O)O)cc3)nc2c(=O)[nH]1")
"1.8 +/− 0.7"
>>> result("Nc1nc2ncc(CNc3ccc(C(=O)N[C@@H](CCC(=O)NC[C@H](N)C(=O)N[C@@H](CC(=O)O)C(=O)N[C@@H](CSC4CC(=O)N(CCNC(=O)CN5CCN(CC(=O)O)CCN(CC(=O)O)CCN(CC(=O)O)CC5)C4=O)C(=O)O)C(=O)O)cc3)nc2c(=O)[nH]1 (some centres unmarked)")
"3.3 +/− 1.8"
>>> result("Nc1nc2ncc(CNc3ccc(C(=O)N[C@@H](CNC(=O)CCC(C(=O)O)N4CCN(CC(=O)O)CCN(CC(=O)O)CCN(CC(=O)O)CC4)C(=O)O)cc3)nc2c(=O)[nH]1 (some centres unmarked)")
"3.5 +/− 1.9"

Now take the following compound into account.
Ask: I have this compound here, "Nc1nc2ncc(CNc3ccc(C(=O)N[C@@H](CNC(=O)CN4CCN(CC(=O)O)CCN(CC(=O)O)CCN(CC(=O)O)CC4)C(=O)O)cc3)nc2c(=O)[nH]1" , and I need its recorded T/Liv.
Result: 0.5 +/− 0.3
